meta.source: patent US9822115B2

system: Class A beta-lactamase, K. pneumoniae ATCC 700603 (SHV 18) (Klebsiella pneumoniae, UniProt P0AD64, E235K/G234A/R39S)
Construct: preincubated mixture of crude enzyme and the agents; endogenous in cells; host or cells: K. pneumoniae ATCC 700603
Sequence (P0AD64 22-286 R39S/G234A/E235K): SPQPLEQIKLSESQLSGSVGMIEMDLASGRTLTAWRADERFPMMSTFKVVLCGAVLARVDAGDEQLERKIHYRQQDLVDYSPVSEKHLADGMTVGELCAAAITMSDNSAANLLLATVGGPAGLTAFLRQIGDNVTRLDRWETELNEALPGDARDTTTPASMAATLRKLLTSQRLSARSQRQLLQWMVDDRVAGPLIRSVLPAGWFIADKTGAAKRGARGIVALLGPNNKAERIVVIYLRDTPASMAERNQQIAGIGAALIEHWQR
procedure.text: biochemical
Reported pIC50 is given for each of the following compounds.
Scale for pIC50: -log10 of concentration given in mol/L; no unit attached.

[[record]]
input_smiles = "CC(C)(C)OC(=O)CC(=O)Oc1ccc(CC(=O)NNC(=O)[C@@H]2CC[C@@H]3CN2C(=O)N3OS(=O)(=O)O)cc1"
measured_number = 7.60

[[record]]
input_smiles = "O=C(Cc1ccccc1O[C@H]1CCNC1)NNC(=O)[C@@H]1CC[C@@H]2CN1C(=O)N2OS(=O)(=O)O"
measured_number = 7.10

[[record]]
input_smiles = "O=C(Cc1ccc(O)cc1)NNC(=O)[C@@H]1CC[C@@H]2CN1C(=O)N2OS(=O)(=O)[O-].[Na+]"
measured_number = 6.99

[[record]]
input_smiles = "O=C(Cc1ccccc1O)NNC(=O)[C@@H]1CC[C@@H]2CN1C(=O)N2OS(=O)(=O)O"
measured_number = 7.89

[[record]]
input_smiles = "Nc1ccc(CC(=O)NNC(=O)[C@@H]2CC[C@@H]3CN2C(=O)N3OS(=O)(=O)O)cc1"
measured_number = 7.49

[[record]]
input_smiles = "O=C(Cc1ccccc1OC[C@H]1CCCN1)NNC(=O)[C@@H]1CC[C@@H]2CN1C(=O)N2OS(=O)(=O)O"
measured_number = 6.90

[[record]]
input_smiles = "O=C(Cc1cccc(OC[C@@H]2CCCN2)c1)NNC(=O)[C@@H]1CC[C@@H]2CN1C(=O)N2OS(=O)(=O)O"
measured_number = 7.28

[[record]]
input_smiles = "NCCCOc1ccccc1CC(=O)NNC(=O)[C@@H]1CC[C@@H]2CN1C(=O)N2OS(=O)(=O)O"
measured_number = 7.10

[[record]]
input_smiles = "O=C(Cc1ccc(OC[C@@H]2CCCN2)cc1)NNC(=O)[C@@H]1CC[C@@H]2CN1C(=O)N2OS(=O)(=O)O"
measured_number = 7.15

[[record]]
input_smiles = "O=C(Cc1cccc(OC[C@@H]2CCNC2)c1)NNC(=O)[C@@H]1CC[C@@H]2CN1C(=O)N2OS(=O)(=O)O"
measured_number = 7.35


Determine from records and report pIC50 for CC(C)(C)C(=O)Oc1ccc(CC(=O)NNC(=O)[C@@H]2CC[C@@H]3CN2C(=O)N3OS(=O)(=O)O)cc1
7.60

Determine from records and report pIC50 for C[C@H](N)COc1ccc(CC(=O)NNC(=O)[C@@H]2CC[C@@H]3CN2C(=O)N3OS(=O)(=O)O)cc1
6.41

---

Test system: K. pneomoniae S48 (NDM, SHV, TEM)
procedure.text: Antibacterial activity, MIC by agar dilution (CLSI)
Type: cell-based, K. pneumoniae
condition.parameters: Klebsiella pneumoniae, 18 h; Table 2; K. pneomoniae S48 (NDM, SHV, TEM); read-out: MIC
Label 1 (yes) when MIC is strictly below 8 µg/mL; at or above that, label 0 (no).

Is 8 µg/mL strictly greater than the compound's reported MIC? compound: CNCCOc1cccc(CC(=O)NNC(=O)[C@@H]2CC[C@@H]3CN2C(=O)N3OS(=O)(=O)O)c1
1 (yes)

Is 8 µg/mL strictly greater than the compound's reported MIC? compound: CCOc1ccccc1CC(=O)NNC(=O)[C@@H]1CC[C@@H]2CN1C(=O)N2OS(=O)(=O)O
0 (no)

---

Test system: K. pneomoniae S48 (NDM, SHV, TEM)
procedure.text: Antibacterial activity, MIC by agar dilution (CLSI)
Format: cell-based, K. pneumoniae
condition.parameters: Klebsiella pneumoniae, 18 h; Table 2; K. pneomoniae S48 (NDM, SHV, TEM); read-out: MIC
property.label: MIC (µg/mL)
Answer with a number only, understood to be in µg/mL.

// known answers, use as guide
[[record]]
input_smiles = "O=C(Cc1ccccc1O)NNC(=O)[C@@H]1CC[C@@H]2CN1C(=O)N2OS(=O)(=O)O"
system = "K. pneomoniae S48 (NDM, SHV, TEM)"
measured_number = 2

[[record]]
input_smiles = "CNCCOc1ccccc1CC(=O)NNC(=O)[C@@H]1CC[C@@H]2CN1C(=O)N2OS(=O)(=O)O"
system = "K. pneomoniae S48 (NDM, SHV, TEM)"
measured_number = 1

[[record]]
input_smiles = "COc1ccc(CC(=O)NNC(=O)[C@@H]2CC[C@@H]3CN2C(=O)N3OS(=O)(=O)O)cc1"
system = "K. pneomoniae S48 (NDM, SHV, TEM)"
measured_number = 1

[[record]]
input_smiles = "O=C(Cc1ccc(O)cc1F)NNC(=O)[C@@H]1CC[C@@H]2CN1C(=O)N2OS(=O)(=O)O"
system = "K. pneomoniae S48 (NDM, SHV, TEM)"
measured_number = 0.5


// moving on: another record for MIC
Determine from records and report MIC for O=C(CCc1ccccc1)NNC(=O)[C@@H]1CC[C@@H]2CN1C(=O)N2OS(=O)(=O)O
8

---

system: Class D beta-lactamase, A. baumannii NCTC 13301 (OXA 23) (Acinetobacter baumannii, UniProt Q9L4P2)
Construct: preincubated mixture of crude enzyme and the agents; endogenous in cells; host or cells: A. baumannii NCTC 13301
Sequence (Q9L4P2 18-273): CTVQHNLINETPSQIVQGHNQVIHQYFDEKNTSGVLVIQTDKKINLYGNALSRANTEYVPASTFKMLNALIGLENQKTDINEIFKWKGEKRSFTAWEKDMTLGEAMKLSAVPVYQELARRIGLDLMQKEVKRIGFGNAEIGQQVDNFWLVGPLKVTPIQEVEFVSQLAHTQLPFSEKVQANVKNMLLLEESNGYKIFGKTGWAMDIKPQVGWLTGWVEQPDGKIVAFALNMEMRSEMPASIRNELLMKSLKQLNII
procedure.text: Beta-lactamase enzyme inhibition (nitrocefin, crude enzyme)
Assay type: biochemical
condition.parameters: Class D A. baumannii NCTC 13301 (OXA 23); read-out: Beta-lactamase enzyme inhibition IC50
property.label: IC50 (nM)
Answer with a number only, understood to be in nM.

// known answers, use as guide
[[record]]
input_smiles = "COc1ccc(CC(=O)NNC(=O)[C@@H]2CC[C@@H]3CN2C(=O)N3OS(=O)(=O)O)cc1"
measured_number = 105

[[record]]
input_smiles = "Nc1ccc(CC(=O)NNC(=O)[C@@H]2CC[C@@H]3CN2C(=O)N3OS(=O)(=O)O)c(F)c1"
measured_number = 194

[[record]]
input_smiles = "C[C@H](N)COc1cccc(CC(=O)NNC(=O)[C@@H]2CC[C@@H]3CN2C(=O)N3OS(=O)(=O)O)c1"
measured_number = 990


// moving on: another record for IC50
Determine from records and report IC50 for CC(C)[C@@H](N)COc1ccc(CC(=O)NNC(=O)[C@@H]2CC[C@@H]3CN2C(=O)N3OS(=O)(=O)O)c(F)c1
4100

---

system: Class A beta-lactamase, K. pneumoniae ATCC 700603 (SHV 18) (Klebsiella pneumoniae, UniProt P0AD64, E235K/G234A/R39S)
Construct: preincubated mixture of crude enzyme and the agents; endogenous in cells; host or cells: K. pneumoniae ATCC 700603
procedure.text: biochemical
Label True when IC50 is strictly below 70 nM; at or above that, label False.

Worked examples follow.
[[record]]
compound = "O=C(Cc1ccccn1)NNC(=O)[C@@H]1CC[C@@H]2CN1C(=O)N2OS(=O)(=O)O [Example 8]"
answer_label = "True"

[[record]]
compound = "C[C@@H](N)COc1cccc(CC(=O)NNC(=O)[C@@H]2CC[C@@H]3CN2C(=O)N3OS(=O)(=O)O)c1 [Example 42]"
answer_label = "True"


Is 70 nM strictly greater than the compound's reported IC50? compound: NC(=O)[C@@H]1CC[C@@H]2CN1C(=O)N2OS(=O)(=O)O [Avibactam, avibactam, reference compound]
False

Is 70 nM strictly greater than the compound's reported IC50? compound: N#Cc1ccc(CC(=O)NNC(=O)[C@@H]2CC[C@@H]3CN2C(=O)N3OS(=O)(=O)O)cc1 [Example 10]
False

Is 70 nM strictly greater than the compound's reported IC50? compound: O=C(CCc1ccccc1)NNC(=O)[C@@H]1CC[C@@H]2CN1C(=O)N2OS(=O)(=O)O [Example 5]
True

---

Test system: E. coli M50
procedure.text: Zone of inhibition, compound alone and in combination with ceftazidime (agar well)
Assay type: cell-based
condition.parameters: Escherichia coli, M50, E. coli M50; Compound + Ceftazidime (10 μg/ml); 1 μg/well; read-out: Diameter of Zone of Inhibition
property.label: zone of inhibition at 1 µg/disc (mm)
Answer with a number only, understood to be in mm.

[[record]]
compound = "O=C(Cc1ccc(O)cc1)NNC(=O)[C@@H]1CC[C@@H]2CN1C(=O)N2OS(=O)(=O)[O-].[Na+] [Example 1]"
measured_number = 22

[[record]]
compound = "C[C@@H](N)COc1ccccc1CC(=O)NNC(=O)[C@@H]1CC[C@@H]2CN1C(=O)N2OS(=O)(=O)O [Example 3]"
measured_number = 17

[[record]]
compound = "NCc1ccc(CC(=O)NNC(=O)[C@@H]2CC[C@@H]3CN2C(=O)N3OS(=O)(=O)O)cc1 [Example 12]"
measured_number = 23


Provide measured zone of inhibition at 1 µg/disc on E. coli M50 for NCCOc1ccccc1CC(=O)NNC(=O)[C@@H]1CC[C@@H]2CN1C(=O)N2OS(=O)(=O)O [Example 2] please.
18.5
